# Read-out: Monokine induced gamma interferon (MIG), CXCL9 (gene 4283)
# Procedure Summary: BSK_SAg_MIG: BioMAP Diversity Plus: SAg Assay for Monokine induced gamma interferon (MIG) Biomarker Activity (AID 2283092)
# Test Context: primary human HUVEC with PBMC; actives raise or lower the signal
Active and inactive are the calls of the source. How the source made its calls: active means hit-call score of the fitted dose curve at least 0.9, where 1 is the maximum; inactive means score below 0.9.
Just give me one of these, please: Yes for active, No for inactive

Some entries whose results are on file:
{"Compound": "Nc1ccc(N=Nc2ccccc2)cc1", "Assigned Class": "No"}
{"Compound": "CC(C)N(Cc1ccccc1)C(=O)C(C)(C)C", "Assigned Class": "No"}
{"Compound": "Cc1cc(N=Nc2ccccc2C)ccc1N", "Assigned Class": "No"}
{"Compound": "CC(O)CCO (stereo not drawn)", "Assigned Class": "No"}
{"Compound": "O=C(N[C@H](c1ccccc1)[C@@H]1CN2CCC1CC2)c1c(Cl)ccc(C(F)(F)F)c1Cl", "Assigned Class": "No"}

Assay result, entry ClC1=C(Cl)[C@]2(Cl)[C@H]3[C@H]([C@@H]4C=C[C@H]3C4)[C@@]1(Cl)C2(Cl)Cl — outcome?
Yes

* * *

# Procedure Summary: BSK_4H_SRB: Viability Assessment in the BioMAP Diversity Plus: 4H Assay (AID 2283027);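 further: cells exposed to compound for 24 h before staining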
# Test Context: primary human endothelial cells (HUVEC)
Activity calls are given as the source filed them. How the source made its calls: active means hit-call score of the fitted dose curve at least 0.9, where 1 is the maximum; inactive means score below 0.9.
Pick from yes (1) = active, no (0) = inactive when you respond.

Below are worked cases with known answers.
{"Compound": "N#CC(Br)(Br)C(N)=O", "Assigned Class": "no (0)"}
{"Compound": "CCCCCCCCCCCCCN1CC(C)OC(C)C1 (stereo unspecified)", "Assigned Class": "no (0)"}
{"Compound": "C[N+](C)(C)CC1CO1 (stereo unspecified)", "Assigned Class": "no (0)"}
{"Compound": "O=C(N[C@H](c1ccccc1)[C@@H]1CN2CCC1CC2)c1c(Cl)ccc(C(F)(F)F)c1Cl", "Assigned Class": "no (0)"}
{"Compound": "O=C(O)C1C2CCC(O2)C1C(=O)O (stereo unspecified)", "Assigned Class": "no (0)"}
{"Compound": "Nc1cc(Cl)cc(C(=O)O)c1Cl", "Assigned Class": "no (0)"}
{"Compound": "CCCCCOC(=O)c1ccccc1C(=O)OCCCCC", "Assigned Class": "no (0)"}
{"Compound": "O=C(Nc1ccccc1)c1ccccc1I", "Assigned Class": "no (0)"}

# fetch the recorded call for CC(C)(O)c1cnn2c(-c3ccc(F)c(-c4c(F)cccc4C#N)c3)cnc2n1 here
yes (1)

What was the test verdict on CN(C)C(=O)Nc1ccc(Cl)cc1 ?
no (0)

What was the test verdict on O=[N+]([O-])C(Br)(CO)CO ?
yes (1)

Per the assay record, what outcome was assigned to CC(C)(C)OOC(=O)c1ccccc1 ?
no (0)

I'd appreciate the recorded outcome for Cc1ccc([N+](=O)[O-])cc1 from this test.
no (0)

Entry CCCCCCCCOC(=O)c1ccc(C(=O)OCCCCCCCC)c(C(=O)OCCCCCCCC)c1 : call = ?
no (0)

Dear colleague, could you share the recorded outcome for CCC[CH2][Sn]([Cl])([CH2]CCC)[CH2]CCC when you have a moment?
yes (1)

# fetch the recorded call for O=C1CCCO1 here
no (0)

* * *

# Read-out: Nuclear factor NF-kappa-B p105 subunit (Homo sapiens)
# Procedure Summary: LTEA_HepaRG_NFKB1: Life Technologies and Expression Analysis (LTEA) Assay for Nuclear Factor Kappa B Subunit 1 (NFKB1) using HepaRG (AID 2283521)
# Test Context: mRNA level, 48 h; actives raise or lower the signal
The source made the active and inactive calls. The calls were made as follows: active = hit-call score of the fitted dose curve at least 0.9, where 1 is the maximum; inactive = score below 0.9.
Hi there, use one of these labels in your reply, thanks! true (1) for active, false (0) for inactive

{"Test Smiles": "Cc1ccc(N=C=O)cc1N=C=O", "Assigned Class": "false (0)"}
{"Test Smiles": "CCCCCCCCOC(=O)c1ccc(C(=O)OCCCCCCCC)c(C(=O)OCCCCCCCC)c1", "Assigned Class": "false (0)"}
{"Test Smiles": "Cc1ccc(N)c(N)c1", "Assigned Class": "false (0)"}
{"Test Smiles": "c1ccc(NNc2ccccc2)cc1", "Assigned Class": "false (0)"}
{"Test Smiles": "CCC[CH2][Sn]([Cl])([CH2]CCC)[CH2]CCC", "Assigned Class": "true (1)"}
{"Test Smiles": "Nc1ccc(Oc2ccc(N)cc2)cc1", "Assigned Class": "false (0)"}

Per the assay record, what outcome was assigned to CC(C)N(Cc1ccccc1)C(=O)C(C)(C)C ?
false (0)

* * *

# Read-out: Pyruvate Dehydrogenase Kinase 4 (PDK4), PDK4 (gene 5166)
# Procedure Summary: LTEA_HepaRG_PDK4: Life Technologies and Expression Analysis (LTEA) Assay for Pyruvate Dehydrogenase Kinase 4 (PDK4) using HepaRG (AID 2283525)
# Test Context: mRNA level, 48 h; actives raise or lower the signal
The source made the active and inactive calls. Rule for the calls: active = hit-call score of the fitted dose curve at least 0.9, where 1 is the maximum; inactive = score below 0.9.

{"Compound": "C[N+](C)(C)CC1CO1 (centres undefined)", "outcome": "inactive"}
{"Compound": "CC(C)(OOC(C)(C)c1ccccc1)c1ccccc1", "outcome": "inactive"}
{"Compound": "CCC12COCN1COC2", "outcome": "inactive"}
{"Compound": "CC(C)(C)OOC(=O)c1ccccc1", "outcome": "inactive"}

* * *

# Read-out: Matrix Metallopeptidase 9 (MMP9), MMP9 (gene 4318)
# Procedure Summary: BSK_KF3CT_MMP9: BioMAP Diversity Plus: KF3CT Assay for Matrix Metallopeptidase 9 (MMP9) Biomarker Activity (AID 2283074)
# Test Context: primary human keratinocytes with fibroblasts; actives raise or lower the signal
The source made the active and inactive calls. How the source made its calls: active means hit-call score of the fitted dose curve at least 0.9, where 1 is the maximum; inactive means score below 0.9.
Your answer must be one of the following: active, inactive

{"Test Smiles": "Clc1ccc(Cl)c(Cl)c1", "Assigned Class": "inactive"}
{"Test Smiles": "Nc1ccc(Cl)cc1N", "Assigned Class": "active"}

Now consider a different compound.
Please let me know the test result on file for CS(=O)(=O)NC(=O)c1cc(Oc2ccc(C(F)(F)F)cc2Cl)ccc1[N+](=O)[O-] .
inactive

* * *

I'd appreciate it if you could supply AC50 values for the items below.
# Read-out: Cytochrome P450 (CYP1A1), CYP1A1 (gene 1543)
# Procedure Summary: LTEA_HepaRG_CYP1A1: Life Technologies and Expression Analysis (LTEA) Assay for Cytochrome P450 (CYP1A1) using HepaRG (AID 2283454)
# Test Context: mRNA level, 48 h; actives raise or lower the signal
Active and inactive are the calls of the source. How the source made its calls: active means hit-call score of the fitted dose curve at least 0.9, where 1 is the maximum; inactive means score below 0.9.

{"Test Smiles": "O=C(N[C@H](c1ccccc1)[C@@H]1CN2CCC1CC2)c1c(Cl)ccc(C(F)(F)F)c1Cl", "Value": "11 µM (active)"}

Give the measured AC50 of CCC12COCN1COC2 .
50 µM (active)

* * *

# Procedure Summary: CCTE_Shafer_MEA_dev_spike_duration_mean: CCTE's Neural Network Formation Assay for Mean Spike Duration, Shafer Lab (AID 2284051);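 further: mean network spike duration pooled as area under curve over DIV 5 to 12 recordings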
Active and inactive are the calls of the source. Rule for the calls: active = hit-call score of the fitted dose curve at least 0.9, where 1 is the maximum; inactive = score below 0.9.
Allowed answers: active, inactive

Record excerpt, results attached:
{"Compound": "[O-][Cl+]O", "Assigned Class": "inactive"}
{"Compound": "Nc1cc(Cl)cc(C(=O)O)c1Cl", "Assigned Class": "inactive"}
{"Compound": "CCCCOC(=O)c1ccccc1C(=O)OCc1ccccc1", "Assigned Class": "active"}

GET /call?item= CC(C)(C)C(O)(CCc1ccc(Cl)cc1)Cn1cncn1 (centres undefined) returns the recorded outcome of this test.
active

What did the test return for COC(=O)Nc1nc2ccccc2[nH]1 ?
active

Which outcome did this test record for the compound OCCOCCO ?
inactive

In this assay, the call recorded for CN(C)[C@@H]1C(=O)C(C(N)=O)=C(O)[C@@]2(O)C(=O)C3=C(O)c4c(O)cccc4[C@@](C)(O)[C@H]3C[C@@H]12 was what?
inactive

Record request — test call for Clc1ccc(C(c2ccc(Cl)cc2)C(Cl)Cl)cc1
active

Recorded test call requested for CCC[CH2][Sn]([Cl])([CH2]CCC)[CH2]CCC
active

* * *

# Read-out: Transforming Growth Factor (TGFB1), TGFB1 (gene 7040)
# Procedure Summary: LTEA_HepaRG_TGFB1: Life Technologies and Expression Analysis (LTEA) Assay for Transforming Growth Factor (TGFB1) Transporter using HepaRG (AID 2283533)
# Test Context: mRNA level, 48 h; actives raise or lower the signal
# Procedure: LTEA_HepaRG is a cell based, multiplexed-readout assay that uses HepaRG, a human liver cell line, with measurements taken at 48 hours after chemical dosing on a 96-well plate.LTEA_HepaRG_TGFB1 is one of 102 assay component(s) measured in the LTEA HepaRG cell culture assay. It is a marker of Cell proliferation, survival, death.Data from the assay component LTEA_HepaRG_TGFB1 was analyzed into 1 endpoint. […]
Active and inactive are the calls of the source. Rule for the calls: active = hit-call score of the fitted dose curve at least 0.9, where 1 is the maximum; inactive = score below 0.9.
Form entry, call: pick from active, inactive

Reference set, count: 8
{"Test Smiles": "OCCOCCO", "Assigned Class": "inactive"}
{"Test Smiles": "CCOC(=O)[C@]1(c2ccccc2)Oc2ccccc2[C@@H]1N", "Assigned Class": "inactive"}
{"Test Smiles": "O=C(Nc1ccccc1)c1ccccc1I", "Assigned Class": "active"}
{"Test Smiles": "CCC12COCN1COC2", "Assigned Class": "inactive"}
{"Test Smiles": "CN(C)c1ccc(C(=O)c2ccc(N(C)C)cc2)cc1", "Assigned Class": "inactive"}
{"Test Smiles": "CCC[CH2][Sn]([Cl])([CH2]CCC)[CH2]CCC", "Assigned Class": "inactive"}
{"Test Smiles": "CN(C)c1ccccc1", "Assigned Class": "inactive"}
{"Test Smiles": "[O-][Cl+]O", "Assigned Class": "inactive"}

Identify the outcome logged in this assay for the compound shown: CC(C)COC(=O)c1ccccc1C(=O)OCC(C)C
inactive

For Nc1ccc([N+](=O)[O-])cc1 , what call appears in the results of this test?
inactive
